Can you tell me GI50 for the items I'm about to list?
# Tested on: U-251
# assay_summary: NCI tumour cell line growth inhibition, 48 h
Active and inactive are the calls of the source. Cut-off read from the data, not from the text of the source: active = GI50 up to about 1.1 µM and inactive = higher.

# GI50 of COc1ccc(/C=N/NC(=O)c2ccccc2Nc2ccccc2C(=O)N/N=C/c2ccc(OC)cc2)cc1 = > 100 µM (inactive)

Record Cc1nc2c(=O)n(-c3ccccc3)c(=O)n(-c3ccccc3)c2o1 . Reported GI50: > 100 µM (inactive)

So, O=[N+]([O-])c1c(Br)cc(Br)c2c1Nc1c(ccc(Cl)c1Cl)S2 ? Its GI50 was 17.9 µM (inactive)

# GI50 (compound: COC(=O)/C=C/c1cnc2c(c1)oc(=O)n2C ) is > 100 µM (inactive)

The recorded GI50 for entry CN(C)CCCNc1ccc2nnn3c4ccc([N+](=O)[O-])cc4c(=O)c1c23 equals 0.738 µM (active)

Sample C=CCC(C)C12CCNC(Cc3ccc(O)cc31)C2C (stereo not given) ; GI50 observed: > 100 µM (inactive)

Noted for O=C(Nc1ccc(Cl)cc1Cl)c1c/c(=N\O)c2ccc(O)cc2o1 : its GI50 reads > 100 µM (inactive)

Per the record, N/C(=N\N=C\c1cc2ccccc2s1)c1cnccn1 has GI50 of > 100 µM (inactive)

// recorded GI50 for O=C(O)CN1CCNCCN(CC(=O)O)CCN(CC(=O)O)CCNCC1 : > 100 µM (inactive)

Per the records, this compound ( CNC(=O)OCc1nc([S+](C)[O-])n(C)c1COC(=O)NC (stereo not given) ) has GI50 equal to > 100 µM (inactive)

The recorded GI50 for entry CCC/C(=N\NC(=O)c1cc2ccccc2cc1O)C(CC)C(=O)CCC(=O)N(Cc1ccccc1)Cc1ccccc1 (stereo not given) equals 57 µM (inactive)

GI50 reading for COc1ccc(/C=C/C(=O)N[C@@H]2C(=O)N3[C@@H]2SC(C)(C)[C@@H]3C(=O)O)cc1 : > 100 µM (inactive)

GI50 measured on BrC/C=C/C[P+](c1ccccc1)(c1ccccc1)c1ccccc1 = 24 µM (inactive)

Lab note: measured GI50 of Nc1ccc(S(=O)(=O)Nc2nc3ccccc3nc2N2CCCCCC2)cc1 was 20.2 µM (inactive)

Data point: CCCC(=O)Oc1cc(OC(=O)CCC)c2c(C)cc(=O)oc2c1 ; GI50 = 78.3 µM (inactive)

Entry O=S1(=O)c2ccccc2N2C(c3ccccc3)=NOC2(c2ccccc2)CC1c1ccc(Br)cc1 (stereo not given) ; GI50 = > 100 µM (inactive)

Consider Cc1n[nH]c(=O)c2c3c([nH]c12)-c1ccccc1C3 . Its measured GI50 is > 100 µM (inactive)

In plain terms, CC(=O)/N=C1/N(/C=C2\C(=O)Oc3ccccc3C2=O)C(=O)/C(=C/c2ccccc2Cl)N1C has a documented GI50 of > 100 µM (inactive)

The recorded GI50 for entry C=C(C[N+](C)(C)C)N/N=C/c1oc(-c2ccc(OC)c(OC)c2)c(-c2ccc(OC)c(OC)c2)c1[N+](=O)[O-] equals 19.5 µM (inactive)

# GI50 of C=C1C(OC(C)=O)CC(OC(C)=O)C2(C)C(OC(C)=O)C(OC(C)=O)C3=C(C)C(OC(=O)/C=C/c4ccccc4)CC(C(OC(C)=O)C12)C3(C)C (stereo not given) = 36.2 µM (inactive)

###

# Tested on: DU-145
# assay_summary: NCI tumour cell line growth inhibition, 48 h
Activity calls are given as the source filed them. Rule as the data show it: active = GI50 up to about 1.1 µM and inactive = higher.
For each entry below, report its GI50 value.

response.value for O=[N+]([O-])/C=C/c1cc2ccc3ccccc3c2[nH]1 (field: GI50) = 1.9 µM (inactive)

For reference, reported GI50 for N#CC1=C(N)OC(c2cccc([N+](=O)[O-])c2)C1(C#N)C#N (stereo unspecified) stands at 17.3 µM (inactive)

The molecule COc1cc2nc(-c3cccs3)[nH]c(=O)c2cc1OC showed GI50 equal to > 100 µM (inactive)

GI50 recorded for this molecule, CN(C(=O)c1cccs1)C(=S)N1CCN(c2ccccc2)CC1 , is > 100 µM (inactive)

Record O=C(/C=C/NC(=O)OCc1ccccc1)OCc1ccccc1 , field GI50: > 100 µM (inactive)

Field GI50 (entry c1ccc2cc(-c3cc(-c4cc(-c5ccc6ccccc6c5)on4)no3)ccc2c1 ) reads > 100 µM (inactive)

Form: molecule = CCN(CC)CCSc1c2cc(OC)ccc2nc2ccc(OC)cc12 ; GI50 = 2.05 µM (inactive)

GI50 reading for CCOC(=O)C1=C(C)C(C(=O)OC)/C(=C/c2cccc3cccnc23)C1=O (stereo unspecified) : > 10 µM (inactive)

The value of GI50 measured for the molecule O=C(Cc1ccc(O)c(O)c1)NCc1c[nH]c2ccccc12 turned out to be 29.1 µM (inactive)

Short answer for COC(=O)/C=C/c1cnc2c(c1)oc(=O)n2C : GI50 was > 100 µM (inactive)

Value of GI50 reported for the molecule COc1ccc(C(=O)/C=C2\Nc3cccnc3N\C2=C/C(=O)c2ccc(OC)cc2)cc1 is 19.9 µM (inactive)

###

Record form. Attribute: GI50. Fill in for each entry.
# Tested on: DLD-1
# assay_summary: NCI tumour cell line growth inhibition, 48 h
The source made the active and inactive calls. No stated cut-off is given here; in the data, active = GI50 up to about 1.1 µM and inactive = higher.

Note to self: GI50 recorded for O=c1cc(-c2ccccc2)oc2cc(OCCCOc3ccc4c(=O)cc(-c5ccccc5)oc4c3)ccc12 was > 100 µM (inactive)

C=C1C(=O)O[C@H]2C1[C@H](OC(=O)/C(C)=C\COC(C)=O)C[C@]1(CO1)[C@@H]1[C@H](O)[C@H]3O[C@@]3(C)[C@@H]12 (some centres undefined) yielded GI50 of 12.2 µM (inactive)

The compound identified as Cc1cn([C@H]2C[C@H](N=[N+]=[N-])[C@@H](CO)O2)c(=O)[nH]c1=O [ZIDOVUDINE] registered its GI50 at > 100 µM (inactive)

So, COc1ccc(-c2c3ccccc3c(-c3ccc(OC)cc3)c3ccccc23)cc1 ? Its GI50 was > 100 µM (inactive)

###

# System: UACC-257
# assay_summary: NCI tumour cell line growth inhibition, 48 h
Active and inactive are the calls of the source. Rule as the data show it: active = GI50 up to about 1.1 µM and inactive = higher.
Please answer using one outcome listed in active, inactive

query: State the result this test recorded for Nc1nc(N)c(Cn2ccnc2)c(O)n1 .
result: inactive

query: What did the test return for CSc1[nH]nc(N)c1C(=O)Nc1ccccc1 ?
result: inactive

query: How was N#CC1=C(N)OC(c2cccc([N+](=O)[O-])c2)C1(C#N)C#N (stereo not given) classified in this test?
result: inactive

query: Lab log entry: CC[C@@]1(O)C[C@H](OC2CC(N(C)C)C(O)C(C)O2)c2c(O)c3c(c(O)c2[C@H]1OC1CC(N(C)C)C(O)C(C)O1)C(=O)c1cccc(O)c1C3=O (stereo not given in full) — outcome as called in the assay?
result: active

query: Could you kindly confirm the outcome this assay logged for COc1ccc2nc3cc(Cl)ccc3c(SCC(=O)Nc3ccccc3-c3ccccc3NC(=O)CSc3c4ccc(Cl)cc4nc4ccc(OC)cc34)c2c1 ?
result: inactive

###

# System: NCI-H226
# assay_summary: NCI tumour cell line growth inhibition, 48 h
Activity calls are given as the source filed them. No stated cut-off is given here; in the data, active = GI50 up to about 1.1 µM and inactive = higher.
// classify into active, inactive

query: Which outcome was entered for the compound COc1cc(C=O)ccc1Oc1nnnn1-c1ccccc1 in this test?
result: active

query: For NCCCn1c2ccccc2c2c3c(c4c(c21)CCC(O)CC4)C(=O)NC3=O (stereo not given) , which call appears in the assay record?
result: inactive

query: Just curious, what result did NC(=O)CC(N)C(=O)NC(Cc1ccccc1)C(=O)NC(Cc1ccccc1)NC(=O)C(Cc1c[nH]c2ccccc12)C(=O)O (stereo not given) get here?
result: inactive

query: What did this assay record as the result for Cc1ccc(/N=N/c2c(C)nn(C(=O)CC(=O)Nc3ccccc3)c2C)cc1C ?
result: inactive

query: Which outcome was assigned to Cc1cn(C2CC(Br)C(COC(c3ccccc3)(c3ccccc3)c3ccccc3)O2)c(=O)[nH]c1=O (stereo not given) in this test?
result: inactive

query: Given O=[N+]([O-])c1ccc(C2=Nn3c(nnc3-c3ccccc3)SC2)o1 , state the outcome it received in this test.
result: inactive

query: How did this test come out for COC(=O)C(=NNc1ccccc1[N+](=O)[O-])C(=O)OC ?
result: inactive

query: Query: recorded result category for O=C(Nc1c(Cl)cccc1Cl)c1c(Cl)c(Cl)c(Cl)c(Cl)c1-c1nc2ccccc2[nH]1 in this test
result: inactive

query: Entry COC(=O)CCC1=NOC(CC2CC(CCC(=O)OC)=NO2)C1 (stereo not given) : call = ?
result: inactive

query: Hi, do you know how CCOC(=O)n1c2ccccc2c2c(O)c(OC)c3c(c21)C(=O)NC3=O came out in this test?
result: inactive

query: # fetch the recorded call for CC(=O)/N=C1/N(/C=C2\C(=O)Oc3ccccc3C2=O)C(=O)/C(=C/c2ccccc2Cl)N1C here
result: inactive

query: Called result for COc1ccc(NC(=O)/C(=C/c2ccccc2)C(C)=O)cc1
result: inactive

query: What did the test return for CC(CO)(CBr)COC(=O)c1cc(Br)c(N)c(Br)c1 (stereo not given) ?
result: inactive

query: Recorded test call requested for COC(=O)/C=C/c1cnc2c(c1)oc(=O)n2C
result: inactive

query: Check the results log: what was the call for C=C1C(=O)O[C@H]2C1[C@H](OC(=O)/C(C)=C\COC(C)=O)C[C@]1(CO1)[C@@H]1[C@H](O)[C@H]3O[C@@]3(C)[C@@H]12 (stereo not given in full) ?
result: inactive

query: Check the results log: what was the call for Cc1cc(Cc2cc(C)c(NC(=O)C(=O)C3C(=O)NC(=S)NC3=O)c(C(C)C)c2)cc(C(C)C)c1NC(=O)C(=O)C1C(=O)NC(=S)NC1=O ?
result: inactive

query: Called result for Cc1[nH]c2ccccc2c1C(=O)CC1(O)C(=O)Nc2c(Cl)cc(Cl)cc21 (stereo not given)
result: inactive

query: Tell me the recorded outcome of this test for NC(=S)N/N=C(/CCN1CCCC1)CC(C1=C(O)C2=CCCCC2OC1=O)c1ccccc1 (stereo not given) .
result: inactive

query: How did this test come out for COc1cc(Nc2nc3c(N)cc(C(F)(F)F)cc3nc2-c2ccccc2)cc(OC)c1OC ?
result: inactive

query: Can you look up the reported call for Brc1ccc(/N=N/c2ccc3ccccc3n2)cc1 for me?
result: inactive

query: Recorded test call requested for CCN1CCC(O)(c2ccc([N+](=O)[O-])cc2)C(C(=O)c2ccc([N+](=O)[O-])cc2)C1 (stereo not given)
result: inactive

query: Identify the outcome logged in this assay for the compound shown: Cn1c(=O)sc2cc(C(=S)N3CCC(Cc4ccccc4)CC3)ccc21
result: inactive

query: Can you look up the reported call for Nc1ncnc2c1nnn2C1C=CC(CP(=O)(O)O)C1 (stereo not given) for me?
result: inactive

query: So what was the verdict on Nc1ccc(S(=O)(=O)c2ccc(NC(=O)c3cccnc3)cc2)cc1 in this test?
result: inactive

query: Outcome? COc1ccc(/C=N/NC(=O)c2ccccc2Nc2ccccc2C(=O)N/N=C/c2ccc(OC)cc2)cc1
result: inactive

query: I'd appreciate the recorded outcome for O=C(Cn1c(=O)oc2ccc(C(=O)c3ccccc3Cl)cc21)c1ccc([N+](=O)[O-])cc1 from this test.
result: inactive

query: Any idea what this test logged for CC(O)c1c2c(cc3c1CC1(C3)Cc3cc4c(c(C(C)O)c3C1)CCC4)CCC2 (stereo not given) ?
result: inactive

query: Outcome? Cc1cc(N(CCC#N)CCC#N)ccc1/C(Sc1ccccc1)=C(\NC(=O)/C=C/c1ccccc1)C(=O)Sc1ccccc1
result: inactive

query: Please share the test call associated with N#CCc1nc(-c2cc3ccccc3oc2=O)cs1 .
result: inactive

query: Recorded test outcome, item COc1cc2c(cc1NC(=O)c1ccccc1)c1c(n2S(=O)(=O)c2ccccc2)CCN(S(=O)(=O)c2ccccc2)C1
result: inactive

query: Returns: the outcome recorded for COc1ccc(-c2c(C#N)c(-c3ccc(C)cc3)n(NS(=O)(=O)c3ccc(C)cc3)c(=O)c2C#N)cc1 in this assay.
result: inactive

query: For COc1cc2c(cc1OC)C(N)CC2=O (stereo not given) , which call appears in the assay record?
result: inactive

query: Record request — test call for Cc1ccccc1N/C(=C(/C(Cl)=C(Cl)Cl)[N+](=O)[O-])n1nnc2ccccc21
result: inactive

query: What outcome does the record of this test show for OC1C2CCCCN2C[C@@H](O)[C@H]1O (stereo not given in full) ?
result: inactive

query: Given COC(=O)[C@@H]1C[C@]2(CC=C(C)C)c3ccccc3N(S(=O)(=O)c3ccccc3)[C@@H]2N1C(=O)OC , state the outcome it received in this test.
result: inactive

query: Dear all, I need the recorded test outcome for O=[N+]([O-])c1ccc2nnnn2c1 , thank you.
result: inactive

query: Could you please tell me the result logged for Cc1noc2c1C(=O)CCC2 in this assay?
result: inactive

query: # lookup: test call for Nc1nc(SCCC/C=C/B(O)O)nc2c1ncn2C1OC(CO)C(O)C1O (stereo not given)
result: inactive

query: What did the test return for Cc1cc(=O)oc2c(CNC(C)C(=O)O)c(O)ccc12 (stereo not given) ?
result: inactive

query: Tell me the assay call for C=C(C)CCC1CC=[N+]([O-])OC1C(C)(C)C (stereo not given) please.
result: inactive
